# system-tested: enkephalinase (Rattus norvegicus, UniProt P07861)
# Sequence (P07861 1-750): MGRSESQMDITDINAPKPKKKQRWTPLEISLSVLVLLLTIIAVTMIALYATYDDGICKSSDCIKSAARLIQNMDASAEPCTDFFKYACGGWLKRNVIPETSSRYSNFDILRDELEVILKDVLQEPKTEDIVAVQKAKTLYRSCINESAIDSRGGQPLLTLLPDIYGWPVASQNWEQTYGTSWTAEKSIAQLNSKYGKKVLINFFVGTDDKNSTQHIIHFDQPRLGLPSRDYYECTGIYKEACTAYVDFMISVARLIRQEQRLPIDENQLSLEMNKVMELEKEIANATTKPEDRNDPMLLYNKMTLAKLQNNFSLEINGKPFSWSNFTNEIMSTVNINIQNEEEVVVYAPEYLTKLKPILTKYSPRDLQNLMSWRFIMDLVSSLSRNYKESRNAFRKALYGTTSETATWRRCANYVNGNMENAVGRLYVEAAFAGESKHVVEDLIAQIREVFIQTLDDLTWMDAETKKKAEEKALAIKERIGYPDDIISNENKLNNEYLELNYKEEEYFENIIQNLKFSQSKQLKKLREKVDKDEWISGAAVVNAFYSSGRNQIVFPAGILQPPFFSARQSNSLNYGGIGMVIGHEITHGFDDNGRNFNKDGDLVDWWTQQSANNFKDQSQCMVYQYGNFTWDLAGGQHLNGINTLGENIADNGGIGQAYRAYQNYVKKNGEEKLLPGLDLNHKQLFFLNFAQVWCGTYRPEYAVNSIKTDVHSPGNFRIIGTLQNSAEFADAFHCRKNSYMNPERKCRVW

>  <molecule>
N[C@@H](CS)C(=O)N[C@H](Cc1ccccc1)[C@H](O)C(=O)O

>  <system-tested>
enkephalinase (Rattus norvegicus, UniProt P07861)

>  <IC50>
40 µM

$$$$
>  <molecule>
CC(=O)SCC(=O)N[C@H](Cc1ccccc1)[C@H](O)C(=O)O

>  <system-tested>
enkephalinase (Rattus norvegicus, UniProt P07861)

>  <IC50>
50 µM

$$$$
>  <molecule>
CC(SC(=O)c1ccccc1)C(=O)N[C@H](Cc1ccccc1)[C@H](O)C(=O)O (stereo partly drawn)

>  <system-tested>
enkephalinase (Rattus norvegicus, UniProt P07861)

>  <IC50>
> 300 µM

$$$$
>  <molecule>
O=C(CCSC(=O)c1ccccc1)N[C@H](Cc1ccccc1)[C@H](O)C(=O)O

>  <system-tested>
enkephalinase (Rattus norvegicus, UniProt P07861)

>  <IC50>
> 300 µM

$$$$
>  <molecule>
N[C@H](Cc1ccccc1)[C@H](O)C(=O)O [(2S,3R)-AHPA, 3-amino-2-hydroxy-4-phenylbutanoic acid, reference compound]

>  <system-tested>
enkephalinase (Rattus norvegicus, UniProt P07861)

>  <IC50>
14000 µM

$$$$
>  <molecule>
CC(=O)SCC(=O)N[C@H](Cc1ccccc1)[C@H](O)C(=O)N[C@@H](CC(C)C)C(=O)O

>  <system-tested>
enkephalinase (Rattus norvegicus, UniProt P07861)

>  <IC50>
> 300 µM

$$$$
